FYI, the data here is from patent US5607926A.

tested on: S. aureus Col8A (Meth^S)(lac^-); experiment: In vitro antibacterial evaluation, MIC by agar dilution, S. aureus Col8A; type: cell-based; conditions: Staphylococcus aureus
Where a name gives a salt, the structure may show the parent alone.
MIC values by entry

# Molecule, Value modifier, MIC, µg/mL
records = [
    ("N=C(N)NCc1ccccc1SC1=C(C(=O)O)N2C(=O)[C@@H](NC(=O)Cc3ccccc3)[C@H]2SC1 [Cmpd 128]", "≤", 0.06),
    ("O=C(Cc1ccccc1)N[C@@H]1C(=O)N2C(C(=O)O)=C(Sc3cccnc3-n3cccn3)CS[C@H]12 [Cmpd 103]", "=", 0.25),
    ("O=C(Cc1ccccc1)N[C@@H]1C(=O)N2C(C(=O)O)=C(Sc3ccccc3CO)CS[C@H]12 [Cmpd 38]", "<", 0.25),
    ("N=C(N)SCc1ccc(CC(=O)N[C@@H]2C(=O)N3C(C(=O)O)=C(Sc4ccccc4CSC(=N)N)CS[C@H]23)cc1 [Cmpd 97, trifluoroacetic acid salt]", "=", 0.125),
]
